The measurements presented in this section are drawn from ChEMBL document CHEMBL1140602.

Recorded logIC50 for the following compounds
assay: Inhibition of C3b activation relative to compstatin
Positions of bridges follow the written chain, without caps; N, C: chain ends. Residues, ends and D or L forms follow the SMILES beside them.
Format: numeric value only, no unit, no commentary.

>>> recorded_result("CC[C@H](C)[C@H](NC(C)=O)C(=O)N[C@H]1CSSC[C@@H](C(=O)N[C@H](C(N)=O)[C@@H](C)O)NC(=O)[C@H](CCCNC(=N)N)NC(=O)[C@H](Cc2cnc[nH]2)NC(=O)[C@H](Cc2cnc[nH]2)NC(=O)CNC(=O)[C@H](Cc2c[nH]c3ccccc23)NC(=O)[C@H](CC(=O)O)NC(=O)[C@H](CCC(N)=O)NC(=O)[C@H](C(C)C)NC(=O)[C@H](C(C)C)NC1=O")
0.477
>>> recorded_result("CC[C@H](C)[C@H](NC(C)=O)C(=O)N[C@H]1CSSC[C@@H](C(=O)N[C@H](C(N)=O)[C@@H](C)O)NC(=O)[C@H](CCCNC(=N)N)NC(=O)[C@H](Cc2cnc[nH]2)NC(=O)[C@H](C)NC(=O)CNC(=O)[C@H](Cc2c[nH]c3ccc(O)cc23)NC(=O)[C@H](CC(=O)O)NC(=O)[C@H](CCC(N)=O)NC(=O)[C@H](Cc2c[nH]c3ccc(O)cc23)NC(=O)[C@H](C(C)C)NC1=O")
0.211

Moving on to another compound below.
Consider the compound CC[C@H](C)[C@H](NC(C)=O)C(=O)N[C@H]1CSSC[C@@H](C(=O)N[C@H](C(N)=O)[C@@H](C)O)NC(=O)[C@H](CCCNC(=N)N)NC(=O)[C@H](Cc2cnc[nH]2)NC(=O)[C@H](Cc2cnc[nH]2)NC(=O)CNC(=O)[C@H](Cc2c[nH]c3ccccc23)NC(=O)[C@H](CC(=O)O)NC(=O)[C@H](CC(N)=O)NC(=O)[C@H](C(C)C)NC(=O)[C@H](CC(C)C)NC1=O (Ac-ICLVNDWGHHRCT-NH2; disulfide 2-12) and give its measured logIC50.
0.16

###

Form field: logIC50 (one value per entry).
assay: Inhibition of C3b activation relative to compstatin
Positions of bridges follow the written chain, without caps; N, C: chain ends. Residues, ends and D or L forms follow the SMILES beside them.
Number only, please.

>>> recorded_result("CC[C@H](C)[C@H](NC(C)=O)C(=O)N[C@H]1CSSC[C@@H](C(=O)N[C@H](C(=O)O)[C@@H](C)O)NC(=O)[C@H](CCCNC(=N)N)NC(=O)[C@H](Cc2cnc[nH]2)NC(=O)[C@H](C)NC(=O)CNC(=O)[C@H](Cc2c[nH]c3ccccc23)NC(=O)[C@H](CC(=O)O)NC(=O)[C@H](CCC(N)=O)NC(=O)[C@H](Cc2ccc(C(=O)c3ccccc3)cc2)NC(=O)[C@H](C(C)C)NC1=O")
1.69

Note: attention shifts to another entry.
Can you share its logIC50? I mean this molecule: CC(C)[C@@H]1NC(=O)[C@H](C(C)C)NC(=O)[C@@H](N)CSSC[C@@H](C(=O)O)NC(=O)[C@H](CCCNC(=N)N)NC(=O)[C@H](Cc2cnc[nH]2)NC(=O)[C@H](Cc2cnc[nH]2)NC(=O)CNC(=O)[C@H](Cc2c[nH]c3ccccc23)NC(=O)[C@H](CC(=O)O)NC(=O)[C@H](CCC(N)=O)NC1=O (H-CVVQDWGHHRC-OH; disulfide 1-11)
-0.439

###

experiment: Inhibition of C3b activation relative to compstatin
Positions of bridges follow the written chain, without caps; N, C: chain ends. Residues, ends and D or L forms follow the SMILES beside them.
We begin with a simple list: items and their reported logIC50.
I only need the number, thanks.

>>> recorded_result("CC[C@H](C)[C@H](NC(C)=O)C(=O)N[C@H]1CSSC[C@@H](C(=O)N[C@H](C(N)=O)[C@@H](C)O)NC(=O)[C@H](CCCNC(=N)N)NC(=O)[C@H](Cc2cnc[nH]2)NC(=O)[C@H](C)NC(=O)CNC(=O)[C@H](Cc2c[nH]c3ccccc23)NC(=O)[C@H](CC(=O)O)NC(=O)[C@H](CCC(N)=O)NC(=O)[C@H](Cc2c[nH]c3ccccc23)NC(=O)[C@H](C(C)C)NC1=O")
1.65

Fill in the blank: the reported logIC50 of CC(C)C[C@H](N)C(=O)N[C@H]1CSSC[C@@H](C(=O)NCC(N)=O)NC(=O)[C@H](CCCNC(=N)N)NC(=O)[C@H](Cc2cnc[nH]2)NC(=O)[C@H](Cc2c[nH]c3ccccc23)NC(=O)CNC(=O)[C@H](Cc2c[nH]c3ccccc23)NC(=O)[C@H](CC(=O)O)NC(=O)[C@H](CCC(N)=O)NC(=O)[C@H](C(C)C)NC(=O)[C@H](C(C)C)NC1=O (H-LCVVQDWGWHRCG-NH2; disulfide 2-12) is ____.
0.617

###

assay: Inhibition of C3b activation relative to compstatin
Positions of bridges follow the written chain, without caps; N, C: chain ends. Residues, ends and D or L forms follow the SMILES beside them.
measurement-kind: logIC50
Just the number.

>>> recorded_result("CC[C@H](C)[C@H](NC(C)=O)C(=O)N[C@H]1CSSC[C@@H](C(=O)N[C@H](C(N)=O)[C@@H](C)O)NC(=O)[C@H](CCCNC(=N)N)NC(=O)[C@H](Cc2cnc[nH]2)NC(=O)[C@H](Cc2cnc[nH]2)NC(=O)CNC(=O)[C@H](Cc2c[nH]c3ccccc23)NC(=O)[C@H](CC(=O)O)NC(=O)[C@H](CCC(N)=O)NC(=O)[C@H](Cc2cnc[nH]2)NC(=O)[C@H](C(C)C)NC1=O (Ac-ICVHQDWGHHRCT-NH2; disulfide 2-12)")
0.708

Proceeding to the next molecule to report its logIC50.
I have this molecule here, CC[C@H](C)[C@H](NC(C)=O)C(=O)N[C@H]1CSSC[C@@H](C(=O)N[C@H](C(N)=O)[C@@H](C)O)NC(=O)[C@H](CCCNC(=N)N)NC(=O)[C@H](Cc2cnc[nH]2)NC(=O)[C@H](C)NC(=O)CNC(=O)[C@H](Cc2c[nH]c3ccccc23)NC(=O)[C@H](CC(=O)O)NC(=O)[C@H](CCC(N)=O)NC(=O)[C@H](Cc2ccc(C(=O)c3ccccc3)cc2)NC(=O)[C@H](C(C)C)NC1=O , and I need its recorded logIC50.
1.95

###

test: Inhibition of C3b activation relative to compstatin
Positions of bridges follow the written chain, without caps; N, C: chain ends. Residues, ends and D or L forms follow the SMILES beside them.
Reported logIC50 values for a set of molecules
Field format: numeric only.

>>> recorded_result("CSCC[C@H](NC(C)=O)C(=O)N[C@H]1CSSC[C@@H](C(=O)N[C@@H](Cc2ccccc2)C(N)=O)NC(=O)[C@H](CCCNC(=N)N)NC(=O)[C@H](Cc2cnc[nH]2)NC(=O)CNC(=O)CNC(=O)[C@H](Cc2c[nH]c3ccccc23)NC(=O)[C@H](CC(=O)O)NC(=O)[C@H](CCC(N)=O)NC(=O)[C@H](Cc2cnc[nH]2)NC(=O)[C@H](C(C)C)NC1=O (Ac-MCVHQDWGGHRCF-NH2; disulfide 2-12)")
-0.863

Below: the item to evaluate.
Record request: logIC50 value, item CC(C)[C@@H]1NC(=O)[C@H](C(C)C)NC(=O)[C@@H](N)CSSC[C@@H](C(N)=O)NC(=O)[C@H](CCCNC(=N)N)NC(=O)[C@H](Cc2cnc[nH]2)NC(=O)[C@H](Cc2cnc[nH]2)NC(=O)CNC(=O)[C@H](Cc2c[nH]c3ccccc23)NC(=O)[C@H](CC(=O)O)NC(=O)[C@H](CCC(N)=O)NC1=O (H-CVVQDWGHHRC-NH2; disulfide 1-11)
-0.439

###

experiment: Inhibition of C3b activation relative to compstatin
Positions of bridges follow the written chain, without caps; N, C: chain ends. Residues, ends and D or L forms follow the SMILES beside them.
Known logIC50 of a selection of compounds
Number, no unit, nothing else.

>>> recorded_result("CC(C)[C@@H]1NC(=O)[C@H](C(C)C)NC(=O)[C@@H](N)CSSC[C@@H](C(=O)N[C@H](C(N)=O)[C@@H](C)O)NC(=O)[C@H](CCCNC(=N)N)NC(=O)[C@H](Cc2cnc[nH]2)NC(=O)[C@H](Cc2cnc[nH]2)NC(=O)CNC(=O)[C@H](Cc2c[nH]c3ccccc23)NC(=O)[C@H](CC(=O)O)NC(=O)[C@H](CCC(N)=O)NC1=O (H-CVVQDWGHHRCT-NH2; disulfide 1-11)")
-0.319
>>> recorded_result("CC[C@H](C)[C@H](NC(C)=O)C(=O)N[C@H]1CSSC[C@@H](C(=O)N[C@H](C(N)=O)[C@@H](C)O)NC(=O)[C@H](CCCNC(=N)N)NC(=O)[C@H](Cc2cnc[nH]2)NC(=O)[C@H](Cc2cnc[nH]2)NC(=O)CNC(=O)[C@H](Cc2c[nH]c3ccccc23)NC(=O)[C@H](CC(=O)O)NC(=O)[C@H](CC(N)=O)NC(=O)[C@H](C(C)C)NC(=O)[C@H](C(C)C)NC1=O (Ac-ICVVNDWGHHRCT-NH2; disulfide 2-12)")
0.456

# input compound: CC[C@H](C)[C@H](NC(C)=O)C(=O)N[C@H]1CSSC[C@@H](C(=O)N[C@H](C(N)=O)[C@@H](C)O)NC(=O)[C@H](CCCNC(=N)N)NC(=O)[C@H](Cc2cnc[nH]2)NC(=O)[C@H](Cc2cnc[nH]2)NC(=O)CNC(=O)[C@H](Cc2c[nH]c3ccccc23)NC(=O)[C@H](CC(=O)O)NC(=O)[C@H](CCC(N)=O)NC(=O)[C@H](CO)NC(=O)[C@H](C(C)C)NC1=O (Ac-ICVSQDWGHHRCT-NH2; disulfide 2-12) ; wanted: its logIC50
0.022
